# assay-procedure: in vitro
# run-conditions: pig, PAMPA
property: Papp

[[record]]
compound = "NCCCCCCCNc1c2c(nc3ccccc13)CCCC2 [13c]"
property = "Papp"
result = "7.4 ×10⁻⁶ cm/s"

[[record]]
compound = "CC1=CC2Cc3nc4cc(Cl)ccc4c(NCCCCCCCCCN)c3C(C1)C2 (centres unmarked) [5e]"
property = "Papp"
result = "7.1 ×10⁻⁶ cm/s"

[[record]]
compound = "NCCCCCCCCCNc1c2c(nc3ccccc13)CCCC2 [13e]"
property = "Papp"
result = "6.9 ×10⁻⁶ cm/s"

[[record]]
compound = "CC1=CC2Cc3nc4cc(Cl)ccc4c(NCCCCCCCCN)c3C(C1)C2 (centres unmarked) [5d]"
property = "Papp"
result = "9.8 ×10⁻⁶ cm/s"

[[record]]
compound = "N=C(N)NCCCCCCCCCNc1c2c(nc3cc(Cl)ccc13)CCCC2 [16e]"
property = "Papp"
result = "6.7 ×10⁻⁶ cm/s"


* * *

# assay-procedure: in vitro
# run-conditions: pig, PAMPA
Attribute: Papp
property: Papp

[[record]]
compound = "CC1=CC2Cc3nc4cc(Cl)ccc4c(NCCCN4CCOCC4)c3C(C1)C2 (racemic)"
property = "Papp"
result = "15 ×10⁻⁶ cm/s"

[[record]]
compound = "CC1=CC2Cc3nc4cc(Cl)ccc4c(NCCCN4CCCCC4)c3C(C1)C2 (racemic)"
property = "Papp"
result = "5.9 ×10⁻⁶ cm/s"

[[record]]
compound = "N#CCCCCCCCCNc1c2c(nc3ccccc13)CCCC2 [11e]"
property = "Papp"
result = "7.6 ×10⁻⁶ cm/s"

[[record]]
compound = "N#CCCCCCCCCNc1c2c(nc3cc(Cl)ccc13)CCCC2 [12e]"
property = "Papp"
result = "5.4 ×10⁻⁶ cm/s"


* * *

# pIC50 measurements, system: Electrophorus electricus (Ee) AChE (Electrophorus electricus)
# Sequence (O42275 24-633): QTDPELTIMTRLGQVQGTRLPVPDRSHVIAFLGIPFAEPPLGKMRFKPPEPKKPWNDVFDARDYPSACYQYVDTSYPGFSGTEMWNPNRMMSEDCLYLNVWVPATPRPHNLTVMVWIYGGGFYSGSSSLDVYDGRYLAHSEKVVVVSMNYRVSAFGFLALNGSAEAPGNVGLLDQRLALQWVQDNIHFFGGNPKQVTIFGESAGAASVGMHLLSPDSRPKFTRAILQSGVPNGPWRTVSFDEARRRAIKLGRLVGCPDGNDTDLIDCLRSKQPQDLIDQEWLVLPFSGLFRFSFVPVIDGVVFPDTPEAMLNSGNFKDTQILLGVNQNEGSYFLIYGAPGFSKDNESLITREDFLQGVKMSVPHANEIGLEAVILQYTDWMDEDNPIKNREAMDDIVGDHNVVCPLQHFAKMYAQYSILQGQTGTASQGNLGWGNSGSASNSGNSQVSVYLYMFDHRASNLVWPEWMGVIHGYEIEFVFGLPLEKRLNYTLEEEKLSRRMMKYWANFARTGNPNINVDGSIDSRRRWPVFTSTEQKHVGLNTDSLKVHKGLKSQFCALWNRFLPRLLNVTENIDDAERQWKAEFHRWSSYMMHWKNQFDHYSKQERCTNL
pIC50: −log10 of the molar value.
property: pIC50

[[record]]
compound = "N=C(N)NCCCCCCCCCNc1c2c(nc3ccccc13)CCCC2 [15e]"
experimental_system = "Electrophorus electricus (Ee) AChE (Electrophorus electricus)"
measured_number = 7.52

[[record]]
compound = "CC1=CC2Cc3nc4cc(Cl)ccc4c(NCCCCC#N)c3C(C1)C2 (stereo not shown)"
experimental_system = "Electrophorus electricus (Ee) AChE (Electrophorus electricus)"
measured_number = 7.57

[[record]]
compound = "CC1=CC2Cc3nc4cc(Cl)ccc4c(NCCCCCCCCCN)c3C(C1)C2 (stereo not shown)"
experimental_system = "Electrophorus electricus (Ee) AChE (Electrophorus electricus)"
measured_number = 7.79

[[record]]
compound = "N#CCCCCCCCCNc1c2c(nc3ccccc13)CCCC2 [11e]"
experimental_system = "Electrophorus electricus (Ee) AChE (Electrophorus electricus)"
measured_number = 7.35

[[record]]
compound = "NCCCCCCCCCNc1c2c(nc3ccccc13)CCCC2 [13e]"
experimental_system = "Electrophorus electricus (Ee) AChE (Electrophorus electricus)"
measured_number = 7.81

[[record]]
compound = "N=C(N)NCCCCCCCCCNc1c2c(nc3cc(Cl)ccc13)CCCC2 [16e]"
experimental_system = "Electrophorus electricus (Ee) AChE (Electrophorus electricus)"
measured_number = 7.79

[[record]]
compound = "CC1=CC2Cc3nc4cc(Cl)ccc4c(NCCCCCCCCCCCN)c3C(C1)C2 (stereo not shown)"
experimental_system = "Electrophorus electricus (Ee) AChE (Electrophorus electricus)"
measured_number = 7.45

[[record]]
compound = "CC1=CC2Cc3nc4cc(Cl)ccc4c(NCCCCCCCCN)c3C(C1)C2 (stereo not shown)"
experimental_system = "Electrophorus electricus (Ee) AChE (Electrophorus electricus)"
measured_number = 7.76

[[record]]
compound = "N#CCCCCCCCCNc1c2c(nc3cc(Cl)ccc13)CCCC2 [12e]"
experimental_system = "Electrophorus electricus (Ee) AChE (Electrophorus electricus)"
measured_number = 7.61

[[record]]
compound = "CC1=CC2Cc3nc4cc(Cl)ccc4c(NCCCCCCCCCC#N)c3C(C1)C2 (stereo not shown)"
experimental_system = "Electrophorus electricus (Ee) AChE (Electrophorus electricus)"
measured_number = 8.01


Origin of values: paper PMC5080452
